assayed-system: full length N-terminally FLAG-tagged PARP1 (Homo sapiens, UniProt P09874)
Sequence (P09874 whole entry): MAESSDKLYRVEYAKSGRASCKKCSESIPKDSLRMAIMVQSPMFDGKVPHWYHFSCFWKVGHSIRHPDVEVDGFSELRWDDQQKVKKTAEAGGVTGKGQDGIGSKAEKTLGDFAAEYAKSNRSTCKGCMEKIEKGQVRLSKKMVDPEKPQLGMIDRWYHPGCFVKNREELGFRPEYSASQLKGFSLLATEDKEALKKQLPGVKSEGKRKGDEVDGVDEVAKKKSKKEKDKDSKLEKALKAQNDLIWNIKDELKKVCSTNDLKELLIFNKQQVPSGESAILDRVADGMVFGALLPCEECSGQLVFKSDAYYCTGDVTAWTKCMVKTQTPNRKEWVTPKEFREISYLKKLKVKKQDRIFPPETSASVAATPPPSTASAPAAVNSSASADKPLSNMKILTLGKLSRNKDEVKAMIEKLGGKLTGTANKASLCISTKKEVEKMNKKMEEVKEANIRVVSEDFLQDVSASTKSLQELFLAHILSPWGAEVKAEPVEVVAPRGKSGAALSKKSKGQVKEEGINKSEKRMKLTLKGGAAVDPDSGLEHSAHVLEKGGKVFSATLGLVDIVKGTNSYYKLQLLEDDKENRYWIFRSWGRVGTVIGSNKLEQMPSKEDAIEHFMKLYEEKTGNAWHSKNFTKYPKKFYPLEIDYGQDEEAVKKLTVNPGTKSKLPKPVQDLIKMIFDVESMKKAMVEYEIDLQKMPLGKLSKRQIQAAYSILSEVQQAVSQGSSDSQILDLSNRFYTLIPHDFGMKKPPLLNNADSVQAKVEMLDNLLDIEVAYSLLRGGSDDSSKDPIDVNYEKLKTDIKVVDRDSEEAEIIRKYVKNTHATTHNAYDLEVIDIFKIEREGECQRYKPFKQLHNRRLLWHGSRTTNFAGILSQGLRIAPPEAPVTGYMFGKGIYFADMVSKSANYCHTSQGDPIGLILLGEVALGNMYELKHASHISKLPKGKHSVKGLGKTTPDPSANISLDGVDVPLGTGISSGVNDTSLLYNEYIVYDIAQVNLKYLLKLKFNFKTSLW
measurement-notes: PARP1 probe displacement HTRF assay
measurement-setup: read-out: PARP1 HTRF; binned Kd, PARP1 probe displacement HTRF
Each entry below carries its recorded Kd.

Consider the following illustrative entries.
| molecule | Kd |
| --- | --- |
| CNC(=O)c1ccc(N2CCC(N3CCC(C)(c4nc5ccccc5c(=O)[nH]4)C3)CC2)cn1 (single isomer, unassigned) [Compound 67a] | 100 to 1000 nM |
| CNC(=O)c1ccc(N2CCC(N3CCCC(c4nc5onc(C)c5c(=O)[nH]4)C3)CC2)cn1 (single isomer, unassigned) [Compound 159a] | > 10000 nM |
| CNC(=O)c1ccc(N2CCC(N3CCCC(c4nc5cccnc5c(=O)[nH]4)C3)CC2)cn1 (single isomer, unassigned) [Compound 89a] | > 10000 nM |
| CNC(=O)c1ccc(N2CCC(N3CCC(c4nc5ccccc5c(=O)[nH]4)C3)CC2)c(C(F)(F)F)n1 (single isomer, unassigned) [Compound 139a] | < 10 nM |
| CNC(=O)c1cnc(N2CCC(N3CCC(c4nc5ccccc5c(=O)[nH]4)C3)CC2)cn1 (single isomer, unassigned) [Compound 96a] | 10 to 100 nM |
| N#Cc1ccc(N2CCC(N3CCCC(c4nc5ccccc5c(=O)[nH]4)C3)CC2)cn1 (single isomer, unassigned) [Compound 70b] | 100 to 1000 nM |
| CNC(=O)c1ccc(N2CCC(N3CCCC(Cc4nc5ccccc5c(=O)[nH]4)C3)CC2)cn1 (single isomer, unassigned) [Compound 57a] | 10 to 100 nM |
| CNC(=O)c1ccc(N2CCC(N3CCC(c4cc5ccc(F)cc5c(=O)[nH]4)C3)CC2)nn1 (single isomer, unassigned) [Compound 197b] | 10 to 100 nM |

Bench note: what Kd did CNC(=O)c1ccc(N2CCC(N3CCC(c4nc5onc(C(F)(F)F)c5c(=O)[nH]4)C3)CC2)cn1 (single isomer, unassigned) [Compound 176a] show?
100 to 1000 nM

Recorded Kd of CNC(=O)c1ccc(N2CCC(N3CCCC(c4nc5ncccc5c(=O)[nH]4)C3)CC2)cn1 (single isomer, unassigned) [Compound 98a] , please.
10 to 100 nM

# lookup: Kd of CNC(=O)c1ccc(N2CCC(N3CCCC(c4nc5ccccc5c(=O)[nH]4)CC3)CC2)cn1 (racemic)
< 10 nM

Item under review: COCCNC(=O)c1ccc(N2CCC(N3CCC(c4nc5ccccc5c(=O)[nH]4)C3)CC2)cn1 (racemic) . Reported Kd?
< 10 nM
